Cited source: patent US11147801B2

This document collects pIC50 values reported for DHODH (Homo sapiens (Human)).
pIC50: −log10 of the molar value.

Known results for compounds:
Cn1nc2cc(-c3ccc(-c4cccc(CN5CCOCC5)c4)cc3)cc(C(=O)O)c2n1 : < 6.00
CNCc1cccc(-c2c(F)c(F)c(-c3cc(C(=O)O)c4c(c3)nnn4C)c(F)c2F)c1 : < 6.00
CC(=O)Nc1cccc(-c2ccc(-c3cc(C(=O)O)c4c(c3)nnn4C)cc2)c1 : < 6.00

Prompt: Supply pIC50 value. Item: Cc1ccc(C)n1-c1ccc(-c2cc(C(=O)O)c3nn(C)nc3c2)cc1
Response: 6.00 to 7.00

Prompt: Supply pIC50 value. Item: Cn1nc2cc(-c3ccc(-c4ccccc4)cc3)cc(C(=O)O)c2n1
Response: 6.00 to 7.00

Prompt: Supply pIC50 value. Item: Cc1ccccc1-c1ccc(-c2cc(C(N)=O)c3nn(C)nc3c2)cc1
Response: 6.00 to 7.00

Prompt: Supply pIC50 value. Item: Cn1nc2cc(-c3ccc(-c4ccccc4CN4CCOCC4)cc3)cc(C(=O)O)c2n1
Response: < 6.00

Prompt: Supply pIC50 value. Item: Cn1nnc2cc(-c3ccc(-c4cccc(CN5CCCC5)c4)cc3)cc(C(=O)O)c21
Response: < 6.00
